System: Plasmodium falciparum
Assay: Antiplasmodial activity against chloroquine-resistant Plasmodium falciparum W2
Assay type: functional, organism-based
This section presents compounds with their documented pIC50 values.
To interpret pIC50, take it as minus log10 of a concentration measured in moles per litre.

Measured pIC50 (Plasmodium falciparum), entry `O=C(Oc1cc(O)cc2oc(-c3ccc(O)c(O)c3)c(O[C@@H]3O[C@@H](CO)[C@H](O)[C@H]3O)c(=O)c12)c1cc(O)c(O)c(O)c1` : 4.84

Measured pIC50 (Plasmodium falciparum), entry `O=c1c(O[C@@H]2O[C@@H](CO)[C@H](O)[C@H]2O)c(-c2cc(O)c(O)c(O)c2)oc2cc(O)cc(O)c12` : 4.56

From: ChEMBL document CHEMBL1157951
